Target: HLA-B*51:01
Experiment: IEDB peptide-MHC binding, purified MHC/competitive/fluorescence; filed as Kd, often an IC50 or EC50 that approximates it; bounds were set here for any values at or beyond the usual limits of such assays
Details: source organism: Escherichia coli O139:H28 str. E24377A
metric.name: Kd

[
  {
    "entry.sequence": "SIPFGLMSA",
    "value": "≥ 20 µM"
  }
]

---

Target: HLA-A*24:03
Experiment: IEDB peptide-MHC binding, purified MHC/competitive/fluorescence; filed as Kd, often an IC50 or EC50 that approximates it; bounds were set here for any values at or beyond the usual limits of such assays
Conditions: source organism: Orthohantavirus andesense
metric.name: Kd (nM)

[
  {
    "entry.sequence": "RWASGVSEI",
    "value": 0.2
  }
]
